System: MDR1 (multidrug resistance mutation-1 as written)
assayNotes: Apparent permeability across apical to basolateral side in LLC-PK1 cells overexpressing multidrug resistance mutation-1
Type: ADME, cell-based, Sus scrofa
condition: pig

[
  {
    "compound": "N#Cc1ccc2c(c1)C[C@H](CO)N[C@@H]2c1cc(F)cc(Cl)c1",
    "systemName": "MDR1 (multidrug resistance mutation-1 as written)",
    "Papp A→B": "26.6 ×10⁻⁶ cm/s"
  }
]

---

systemName: UniProt:Q9NZQ8
Sequence (Q9NZQ8 whole entry): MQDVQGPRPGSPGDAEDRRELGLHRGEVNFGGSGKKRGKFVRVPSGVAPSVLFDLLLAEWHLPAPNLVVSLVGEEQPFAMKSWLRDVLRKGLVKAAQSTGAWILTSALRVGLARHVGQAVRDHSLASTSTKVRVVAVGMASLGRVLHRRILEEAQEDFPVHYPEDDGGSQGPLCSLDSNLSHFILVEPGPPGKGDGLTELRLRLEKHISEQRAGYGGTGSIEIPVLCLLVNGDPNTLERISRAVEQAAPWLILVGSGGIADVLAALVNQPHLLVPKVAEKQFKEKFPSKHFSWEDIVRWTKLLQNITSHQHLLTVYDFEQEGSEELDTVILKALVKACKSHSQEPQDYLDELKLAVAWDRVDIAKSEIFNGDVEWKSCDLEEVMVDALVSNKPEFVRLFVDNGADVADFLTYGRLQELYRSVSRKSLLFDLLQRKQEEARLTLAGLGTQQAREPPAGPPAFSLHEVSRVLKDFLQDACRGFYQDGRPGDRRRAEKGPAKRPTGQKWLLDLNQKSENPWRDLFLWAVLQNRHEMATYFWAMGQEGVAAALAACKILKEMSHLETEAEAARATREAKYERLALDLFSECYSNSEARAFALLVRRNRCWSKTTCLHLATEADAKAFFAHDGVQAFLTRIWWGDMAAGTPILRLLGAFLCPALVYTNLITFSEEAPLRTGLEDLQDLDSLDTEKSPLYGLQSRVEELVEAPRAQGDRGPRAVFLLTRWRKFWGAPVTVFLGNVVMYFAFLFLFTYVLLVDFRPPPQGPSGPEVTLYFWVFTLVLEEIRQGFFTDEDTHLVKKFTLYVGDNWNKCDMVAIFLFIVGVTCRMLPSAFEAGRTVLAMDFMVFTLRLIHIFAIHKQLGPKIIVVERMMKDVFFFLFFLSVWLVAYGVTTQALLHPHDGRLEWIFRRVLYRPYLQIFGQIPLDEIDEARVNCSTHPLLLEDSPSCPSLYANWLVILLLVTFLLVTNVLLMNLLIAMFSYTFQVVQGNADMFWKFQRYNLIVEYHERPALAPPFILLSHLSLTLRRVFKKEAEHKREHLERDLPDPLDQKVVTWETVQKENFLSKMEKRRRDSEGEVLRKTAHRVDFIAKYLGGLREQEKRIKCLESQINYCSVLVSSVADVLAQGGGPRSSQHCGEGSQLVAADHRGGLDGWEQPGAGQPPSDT
assayNotes: Agonist activity at human TRPM5 expressed in CHO-K1 cells assessed as increase in relative fluorescence unit measured for 2 mins by FLIPR based membrane potential assay
Format: cell-based
pEC50: −log10 of the molar value.

[
  {
    "compound": "CN1[C@H](CO)Cc2ccc(Cl)cc2[C@@H]1c1ccccc1",
    "limitOperator": "<",
    "pEC50": 4.50
  },
  {
    "compound": "N#Cc1ccc2c(c1)[C@H](c1cc(F)cc(Cl)c1)N[C@H](CO)C2",
    "limitOperator": "=",
    "pEC50": 5.10
  },
  {
    "compound": "OC[C@@H]1Cc2ccc(Cl)cc2[C@H](c2cc(Cl)cc(Cl)c2)N1",
    "limitOperator": "=",
    "pEC50": 6.70
  },
  {
    "compound": "OC[C@@H]1Cc2cc(Cl)cnc2[C@H](c2cc(F)cc(Cl)c2)N1",
    "limitOperator": "=",
    "pEC50": 5.50
  },
  {
    "compound": "OC[C@@H]1Cc2ccccc2[C@H](c2ccccc2)N1",
    "limitOperator": "<",
    "pEC50": 4.50
  },
  {
    "compound": "Cc1ccc2c(c1)[C@H](c1ccccc1)N[C@H](CO)C2",
    "limitOperator": "=",
    "pEC50": 5.00
  }
]
